# Test system: HEK-293T
# measurement-description: Multiplex assay against HEK293T
# Type: toxicity, cell-based
# assay-setup: human, 48 h, 1 µM, compound concentration 1 uM, replicate 1
measured-quantity: Population Normal (%)

# compound, measured-quantity, number
records = [
    ("Cl.Cl.Nc1ncnc2c1c(-c1cccc(OCc3ccccc3)c1)cn2[C@H]1C[C@@H](CN2CCC2)C1", "Population Normal (%)", 70),
    ("Cc1cc2c(cc1N1C(=O)c3cccc4c(CCCO)ccc(c34)C1=O)n(C)c(=O)n2C", "Population Normal (%)", 85),
    ("COc1cc2c(NC3CCN(C(C)C)CC3)nc(N3CCC(F)(F)CC3)nc2cc1OCCCN1CCCC1", "Population Normal (%)", 75),
    ("CC(C)N1CCC(C)(C)c2cc(C#Cc3ccc(C(=O)O)cc3)ccc21", "Population Normal (%)", 82),
    ("CNc1oc(-c2cccc3ccccc23)nc1C#N", "Population Normal (%)", 67),
    ("Nc1ccc(C(=O)Nc2cccc(-c3nc(N4CCOCC4)c4oc5ncccc5c4n3)c2)cn1", "Population Normal (%)", 79),
    ("CCn1c(-c2nonc2N)nc2cnc(Oc3cccc(NC(=O)c4ccc(OCCN5CCOCC5)cc4)c3)cc21 [GSK-269962A]", "Population Normal (%)", 80),
    ("O=C(O)c1ccc2cc(-c3ccc(O)c(C45CC6CC(CC(C6)C4)C5)c3)ccc2c1", "Population Normal (%)", 93),
    ("Nc1nc2c(c(N3CCNCC3)n1)CCC1=C2[C@@H]2CCCC[C@@H]2O1", "Population Normal (%)", 92),
]

###

# Tested on: HEK-293T
# measurement-description: Multiplex assay against HEK293T;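 for Population Tubulin-Different-Phenotype (%): share of the cells with healthy nuclei that show this phenotype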
# Assay type: toxicity, cell-based
# assay-setup: human, 24 h, 1 µM, compound concentration 1 uM, replicate 1
Recorded measurements of Population Tubulin-Different-Phenotype (%), one per entry
measured-quantity: Population Tubulin-Different-Phenotype (%)

# compound, number
rows = [
    ("CC(C)N1CCC(C)(C)c2cc(C#Cc3ccc(C(=O)O)cc3)ccc21", 49),
    ("Cc1nc(Cc2cccc(C(F)(F)F)c2)sc1-c1ccc(C(N)=O)nc1 [TP-024n]", 28),
    ("Nc1ccc(C(=O)Nc2cccc(-c3nc(N4CCOCC4)c4oc5ncccc5c4n3)c2)cn1", 90),
    ("CCOc1cc2ncc(C#N)c(Nc3ccc(OCc4cccc(F)c4)c(Cl)c3)c2cc1NC(=O)/C=C/CN(C)C", 9),
    ("CCCn1c(=O)c2[nH]c(C34CC5CC(CC3C5)C4)nc2n(CCC)c1=O", 83),
    ("CNc1oc(-c2cccc3ccccc23)nc1C#N", 25),
    ("CNC(=O)c1cc(Oc2ccc(NC(=O)Nc3cc(C(C)(C)C)nn3-c3ccc4ncccc4c3)c(F)c2)ccn1", 3),
    ("CCOc1cc(N2CCC(O)CC2)ccc1Nc1ncc2c(n1)N(C1CCCC1)CCC(=O)N2C", 3),
    ("Cc1cc2c(cc1N1C(=O)c3cccc4c(CCCO)ccc(c34)C1=O)n(C)c(=O)n2C", 44),
    ("CCn1c(-c2nonc2N)nc2cnc(Oc3cccc(NC(=O)c4ccc(OCCN5CCOCC5)cc4)c3)cc21 [GSK-269962A]", 43),
    ("COc1ccc(NS(=O)(=O)c2sc3ccc(Cl)cc3c2C)cc1N1CCNCC1.Cl", 43),
    ("c1ccc2oc(-c3csc(C4CCN(Cc5nc6ncccc6[nH]5)CC4)n3)cc2c1", 13),
    ("COc1cc2c(Nc3ccc(NC(=O)c4ccccc4)cc3)ncnc2cc1OCCCN1CCOCC1", 89),
    ("CC(C)(C)c1cnc(CSc2cnc(NC(=O)C3CCNCC3)s2)o1", 9),
    ("CN(C)C/C=C/C(=O)Nc1cc2c(Nc3ccc(F)c(Cl)c3)ncnc2cc1O[C@H]1CCOC1.O=C(O)/C=C\\C(=O)O.O=C(O)/C=C\\C(=O)O [AFATINIB DIMALEATE]", 7),
]
